Where these numbers come from: PubChem BioAssay

- measurement-description: growth inhibition of DIPG glioma cells, dose response, cell-based, SU-DIPG-XIII, MIPE4.0, CellTiter-Glo, qHTS (AID 1347061);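 also: cells exposed to compound for 48 hours before readout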
- condition-context: SU-DIPG-XIII viability, CellTiter-Glo ATP luminescence
Inconclusive results are not listed. Activity calls are given as the source filed them. The limit is not given here; nearly all actives have AC50 up to about 37 µM.
Valid outcomes are listed here; reply with one: active, inactive

Query: Would you mind telling me which call this test gave "C[C@@H]1O[C@@H](O[C@H]2C[C@@H](O)[C@]3(CO)[C@H]4[C@H](O)C[C@]5(C)[C@@H](C6=CC(=O)OC6)CC[C@]5(O)[C@@H]4CC[C@]3(O)C2)[C@H](O)[C@H](O)[C@H]1O" ?
Result: active

Query: Check the results log: what was the call for "CN(C)NC(=O)CCC(=O)O" ?
Result: inactive

Query: Given N=C1NC(=O)N2CC12 (stereo unspecified) , state the outcome it received in this test.
Result: inactive

Query: Each compound tested received a call. Report the one for COc1ccc(CC2NCCc3cc(OC)c(OC)cc32)cc1OC (stereo unspecified) .
Result: inactive

Query: Which result was noted for this compound in the test: "Cc1ccccn1.[Cl][Pt][Cl].[NH2-]"
Result: inactive

Query: Please indicate how the test categorized "O=c1[nH]c2ccccc2n1CCCN1CCC(n2c(=O)[nH]c3cc(Cl)ccc32)CC1" .
Result: inactive

---

- measurement-description: CRL2098 osteosarcoma cell growth inhibition, synergistic combos for chromothripsis tumors, BGB or cisplatin IC20 combos (AID 1671454);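 also: cells exposed for 96 h before readout; 0% = vehicle DMSO and 100% = killing by high DMSO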
- condition-context: CRL2098 osteosarcoma cells, drug combinations, measured here: combination with cisplatin at IC20, at 0.5 µM, stronger effect = higher value
Could you label it Criterion met if measured inhibition is 20% or higher, and Criterion not met otherwise?

Query: Test whether the compound "Cc1c2ccncc2c(C)c2c1[nH]c1ccccc12" records inhibition of 20% or higher.
Result: Criterion not met

Query: Is reported inhibition greater than or equal to 20% here: O=c1[nH]c(=O)n(C2OC(CO)C(O)C2O)cc1F (stereo not drawn)
Result: Criterion not met

Query: Hello, I need to know if "CCC1(c2ccccc2)C(=O)NC(=O)NC1=O" has measured inhibition not below 20%. Thanks!
Result: Criterion not met

Query: Decide: is the reported value of inhibition for "O=C1CCC[C@@H]2[C@H]3CCCN4CCC[C@@H](CN12)[C@@H]34" equal to or greater than 20%?
Result: Criterion met

Query: Could you please find out whether "Cn1c(COP(=O)(NCCBr)NCCBr)cnc1[N+](=O)[O-]" has inhibition that meets 20% or exceeds it?
Result: Criterion not met

Query: Decide: inhibition of "O=P(O)(NCCCl)NCCCl" >= 20%?
Result: Criterion not met

Query: Is inhibition for COc1cc(C2c3cc4c(cc3C(O)C3COC(=O)C23)OCO4)cc(OC)c1OC (stereo not drawn) at or above 20%?
Result: Criterion met

Query: Does the compound "CC1(C)C(C(=O)Nc2ccc(S(=O)(=O)c3ccc(NC(=O)C4C(C)(C)C4(C)C)cc3)cc2)C1(C)C" have recorded inhibition that is 20% or more?
Result: Criterion not met

---

Can you tell me insulin secretion stimulation for the items I'm about to list?
- measurement-description: stimulators of insulin release from INS-1E, primary screen, cell-based, 5 mM glucose, NPC library (AID 1117329); also: reference of the scale not given here
- condition-context: rat INS-1E insulin secretion, at 10 µM, stronger effect = higher value
Report as a plain number; the unit % is understood.

Query: Entry "O=C(CBr)Nc1ccc(Cl)cc1C(=O)c1ccccc1F" : reported insulin secretion stimulation = ?
Result: 18.8

Query: Which insulin secretion stimulation reading was recorded for the compound "c1ccc(C2CC2)c(OCC2=NCCN2)c1" ?
Result: -0.5

Query: Field request: insulin secretion stimulation | item: "CCN(CCO)CCn1c(Cc2ccccc2)nc2c1c(=O)n(C)c(=O)n2C"
Result: 3

Query: // query insulin secretion stimulation value for entry "CCCCCCCCC(=O)NCc1ccc(O)c(OC)c1"
Result: -0.6

Query: So what's the measured insulin secretion stimulation for this one? "Nc1ccccc1"
Result: -2.4

Query: Tell me the measured insulin secretion stimulation of NCC(O)c1cccc(O)c1 (stereo not given) , please.
Result: 0.5

Query: Need insulin secretion stimulation of "Cc1ncsc1CCCl" , thanks.
Result: -0.8

Query: Look up insulin secretion stimulation: "C[C@@H]1C[C@@H]([C@H](O)CC2CC(=O)NC(=O)C2)C(=O)[C@@H](C)C1"
Result: -1

Query: State the recorded insulin secretion stimulation for this entry: COc1ccc(C(CN(C)C)C2(O)CCCCC2)cc1 (stereo not given)
Result: 2.1

Query: Fill in the blank: the reported insulin secretion stimulation of "C#CCOC(C(=O)OCCN(C)C)(c1ccccc1)c1ccccc1" is ____.
Result: 28.7

Query: Fill in: insulin secretion stimulation of "COC(=O)C1=CCCN(C)C1" is ___
Result: -0.6

Query: Recorded insulin secretion stimulation for "COC(=O)c1ccccc1C(=O)OC" , please?
Result: 0.5

Query: For "Cc1ccc([N+](=O)[O-])[c]2c1[O][Hg]2" , what is its reported insulin secretion stimulation?
Result: 87.1

Query: So what does the record say about insulin secretion stimulation for "COC(=O)[C@@H](N)CCCN/C(N)=N/[N+](=O)[O-]" ?
Result: 0.95

Query: Can you look up the measured insulin secretion stimulation of "Cc1cc(O)ccc1Cl" for me?
Result: 0.3

Query: Which insulin secretion stimulation value belongs to "O=C(CCCCl)c1ccc(F)cc1" ?
Result: -0.9

Query: insulin secretion stimulation for "NC(=O)c1cc([N+](=O)[O-])cc([N+](=O)[O-])c1" ?
Result: 0.7

Query: Could you share which insulin secretion stimulation value was measured for "C#C[C@]1(O)CC[C@H]2[C@@H]3CCC4=CC(=O)CCC4=C3C=C[C@@]21CC" ?
Result: 0.7

Query: Give its insulin secretion stimulation value. Item: COC(C)(C)CCCC(C)C/C=C/C(C)=C/C(=O)OC(C)C (stereo not given)
Result: 1.35

Query: Which insulin secretion stimulation is reported for this compound? COc1cccc2c1C(=O)c1c(O)c3c(c(O)c1C2=O)C[C@@](O)(C(=O)CO)CC3OC1CC(N2CCOC(OC)C2)C(O)C(C)O1 (stereo not given in full)
Result: 1.1

Query: I have this compound here, "CC1(C)S[C@@H]2[C@H](N)C(=O)N2[C@@H]1C(=O)O" , and I need its recorded insulin secretion stimulation.
Result: -0.3

Query: Item under review: "C[C@]12CC[C@H]3[C@@H](CCC4=CC(=O)CC[C@@]43C)[C@@H]1CC[C@@H]2C(=O)O" . Reported insulin secretion stimulation?
Result: 0.2

Query: Entry CC(C)C(Br)C(=O)NC(N)=O (stereo not given) : reported insulin secretion stimulation = ?
Result: -0.4

Query: Would you kindly share the measured insulin secretion stimulation for "CCOP(=S)(OCC)Oc1cc(C)nc(C(C)C)n1" ?
Result: 0.4

Query: Look at this compound and give its reported insulin secretion stimulation. "CN(C)[C@@H]1C(=O)C(C(N)=O)=C(O)[C@@]2(O)C(=O)C3=C(O)c4c(O)cccc4[C@@](C)(O)[C@H]3[C@H](O)[C@@H]12"
Result: 1.4

---

Exercise: state measured parasite load remaining for each of the compounds provided.
- measurement-description: liver-stage malaria parasite growth inhibition, primary screen, cell-based, HepG2, luciferase luminescence, HepG2 viability (AID 624349);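 also: 100% = mean of DMSO negative control wells on the same plate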
- condition-context: P. berghei liver stage in HepG2, luciferase luminescence, concentration not given here; stronger effect = lower value
Write it as a number; the unit % goes unstated.

Query: Which parasite load remaining is listed for "COc1ccn(C)c(=O)c1C#N" ?
Result: 84.9

Query: For the compound "COc1ccc2c(c1)[C@]13CCCC[C@H]1[C@H](C2)N(C)CC3" , what parasite load remaining is on record?
Result: 84.3

Query: Fill blank: measured parasite load remaining of the compound "COC(=O)[C@]1(O)C[C@@H]2O[C@@]1(C)n1c3ccccc3c3c4c(c5c6ccccc6n2c5c31)C(=O)NC4" is ____.
Result: 43.2

Query: Returns the measured parasite load remaining for the input compound. Input: "COc1cc2c(c(OC)c1OC)-c1ccc(O)c(=O)cc1[C@@H](N)CC2"
Result: 106

Query: Query (compound): "C[N+]1(CCC(C(N)=O)(c2ccccc2)c2ccccc2)CCCCC1" ; field requested: parasite load remaining
Result: 104

Query: Fill in the blank: the reported parasite load remaining of CNC(C)[C@H](O)c1ccccc1 (stereo partly specified) is ____.
Result: 77

Query: Quick one: parasite load remaining of ClC1C(Cl)C(Cl)C(Cl)C(Cl)C1Cl (stereo unspecified) ?
Result: 60.1

Query: Would you mind telling me what parasite load remaining value was observed for C=CC[C@]1(O)CCC2C3CCC4=CC(=O)CCC4=C3C=C[C@@]21C (stereo partly specified) ?
Result: 26.4

Query: Form field: reported parasite load remaining of "CN1CC[C@@H](c2ccc(F)cc2)[C@H](COc2ccc3c(c2)OCO3)C1"
Result: 84.5

Query: parasite load remaining lookup needed for "C=C[C@H]1CN2CC[C@H]1C[C@@H]2[C@@H](OC(=O)OCC)c1ccnc2ccc(OC)cc12" , thanks.
Result: 53

Query: Consider the compound CCN1C[C@]2(C)CC[C@H](O)[C@]34C1[C@H](C[C@H]23)[C@@]1(O)C[C@H](OC)[C@H]2C[C@@H]4[C@@H]1C2O (stereo partly specified) and give its measured parasite load remaining.
Result: 57.3
